# System: 772245-204-R-J1-PDC complex spheroid growth
# method summary: Anticancer human tumor 772245-204-R-J1-PDC patient-derived rhabdomyosarcoma cell line growth inhibition [Asc]
# experimental context: curve of first compound; second compound 0.03 µM
IC50 listing for selected compounds.

compound: O=C(c1cc(Cc2n[nH]c(=O)c3ccccc23)ccc1F)N1CCN(C(=O)C2CC2)CC1 + CCN1C(C(=O)NC23CCC(C(=O)O)(CC2)CC3)C(c2cccc(Cl)c2F)C2(C(=O)Nc3cc(Cl)ccc32)C12CCCCC2
readout kind: IC50
observed result: > 10 µM
//
compound: CCN1CCN(Cc2ccc(Nc3ncc(F)c(-c4cc(F)c5nc(C)n(C(C)C)c5c4)n3)nc2)CC1 + CCN1C(C(=O)NC23CCC(C(=O)O)(CC2)CC3)C(c2cccc(Cl)c2F)C2(C(=O)Nc3cc(Cl)ccc32)C12CCCCC2
readout kind: IC50
observed result: > 1 µM

// below: IC50 requested for another compound
Lab note: need IC50 for Cc1nc(N2CCC3(CC2)COC(C)C3N)c(CO)nc1Sc1ccnc(N)c1Cl (stereo not drawn) + CCN1C(C(=O)NC23CCC(C(=O)O)(CC2)CC3)C(c2cccc(Cl)c2F)C2(C(=O)Nc3cc(Cl)ccc32)C12CCCCC2 on 772245-204-R-J1-PDC complex spheroid growth, anyone have it?
> 3 µM

---

Item-by-item account of pIC50
# System: 772245-204-R-J1-PDC complex spheroid growth
# method summary: Anticancer human tumor 772245-204-R-J1-PDC cell line growth inhibition [Asc];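 further: compound exposure lasted seven days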
# experimental context: curve of first compound; second compound 3 µM
pIC50: −log10 of the molar value.

compound: O=C(c1cc(Cc2n[nH]c(=O)c3ccccc23)ccc1F)N1CCN(C(=O)C2CC2)CC1 + CCN1C(C(=O)NC23CCC(C(=O)O)(CC2)CC3)C(c2cccc(Cl)c2F)C2(C(=O)Nc3cc(Cl)ccc32)C12CCCCC2
pIC50: < 5.00

Recorded pIC50 of C=CC(=O)N1CCN(c2nc(=O)n(-c3c(C)ccnc3C(C)C)c3nc(-c4c(O)cccc4F)c(F)cc23)C(C)C1 (stereo not drawn) + CCN1C(C(=O)NC23CCC(C(=O)O)(CC2)CC3)C(c2cccc(Cl)c2F)C2(C(=O)Nc3cc(Cl)ccc32)C12CCCCC2 , please.
< 5.00

Query (compound): CCN1CCN(Cc2ccc(Nc3ncc(F)c(-c4cc(F)c5nc(C)n(C(C)C)c5c4)n3)nc2)CC1 + CCN1C(C(=O)NC23CCC(C(=O)O)(CC2)CC3)C(c2cccc(Cl)c2F)C2(C(=O)Nc3cc(Cl)ccc32)C12CCCCC2 ; field requested: pIC50
< 6.00

---

# Test system: 772245-204-R-J1-PDC complex spheroid growth
# method summary: Anticancer human tumor 772245-204-R-J1-PDC cell line growth inhibition [Asc];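 further: compound exposure lasted seven days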
# experimental context: curve of first compound; second compound 0.0949 µM
pIC50: −log10 of the molar value.
readout kind: pIC50

[1] NC(=O)C(=Cn1cnc(-c2cc(C(F)(F)F)cc(C(F)(F)F)c2)n1)c1cncnc1 + CCN1C(C(=O)NC23CCC(C(=O)O)(CC2)CC3)C(c2cccc(Cl)c2F)C2(C(=O)Nc3cc(Cl)ccc32)C12CCCCC2
[2] C=C(F)C(=O)N1CCN(c2nc(OCC3CCCN3C)nc3c2CCN(c2cccc4cccc(Cl)c24)C3)CC1CC#N (centres undefined) + CCN1C(C(=O)NC23CCC(C(=O)O)(CC2)CC3)C(c2cccc(Cl)c2F)C2(C(=O)Nc3cc(Cl)ccc32)C12CCCCC2
Which gives the smaller pIC50 number: 1 or 2 ? Selection: enter the item's label.
2
(2: 5.40, 1: 7.56)

---

# viability, T/C values compiled below
# Tested on: 772245-204-R-J1-PDC complex spheroid growth
# method summary: Anticancer human tumor 772245-204-R-J1-PDC cell line growth inhibition [Asc];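 further: compound exposure lasted seven days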;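 on viability, T/C: 100% = DMSO vehicle control viability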
# experimental context: second compound 0.01 µM; first compound 0.316 µM; stronger effect = lower value
# Description: Multicellular complex tumor spheroid response to apoptosis pathway targeting inhibitors Alrizomadlin, Pelcitoclax, and Dasminapant in combination with a variety of drugs and investigational agents in selected tumor cell lines […] Compounds. […] If the clinical Cmax for an agent had not been determined, the highest concentration tested was 10 microM. […]
Number only, in %; omit the unit.

compound: COc1c(OCCCN2CCOCC2)ccc2c3n(c(=NC(=O)c4cnc(N)nc4)nc12)CCN3 + CNC(C)C(=O)NC1CN(S(=O)(=O)c2cccc(S(=O)(=O)N3CCC4CCC(C(=O)NC(c5ccccc5)c5ccccc5)N4C(=O)C(NC(=O)C(C)NC)C3)c2)CCC2CCC(C(=O)NC(c3ccccc3)c3ccccc3)N2C1=O
viability, T/C (%): 38.4

Kindly review the next compound as well.
What value of viability, T/C has been reported for the following compound? O=C(c1cc(Cc2n[nH]c(=O)c3ccccc23)ccc1F)N1CCN(C(=O)C2CC2)CC1 + CNC(C)C(=O)NC1CN(S(=O)(=O)c2cccc(S(=O)(=O)N3CCC4CCC(C(=O)NC(c5ccccc5)c5ccccc5)N4C(=O)C(NC(=O)C(C)NC)C3)c2)CCC2CCC(C(=O)NC(c3ccccc3)c3ccccc3)N2C1=O
99

---

# Tested on: 772245-204-R-J1-PDC complex spheroid growth
# method summary: Anticancer human tumor 772245-204-R-J1-PDC cell line growth inhibition [Asc];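 further: compound exposure lasted seven days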;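 on viability, T/C: 100% = DMSO vehicle control viability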
# experimental context: second compound 0.3 µM; first compound 1 µM; stronger effect = lower value
readout kind: viability, T/C (%)
Could you give me the number in %? Just the number is fine.

// worked examples, viability, T/C included
molecule: CCN1CCN(Cc2ccc(Nc3ncc(F)c(-c4cc(F)c5nc(C)n(C(C)C)c5c4)n3)nc2)CC1 + CCN1C(C(=O)NC23CCC(C(=O)O)(CC2)CC3)C(c2cccc(Cl)c2F)C2(C(=O)Nc3cc(Cl)ccc32)C12CCCCC2
readout kind: viability, T/C
observed result: 131
--
molecule: O=C(c1cc(Cc2n[nH]c(=O)c3ccccc23)ccc1F)N1CCN(C(=O)C2CC2)CC1 + CCN1C(C(=O)NC23CCC(C(=O)O)(CC2)CC3)C(c2cccc(Cl)c2F)C2(C(=O)Nc3cc(Cl)ccc32)C12CCCCC2
readout kind: viability, T/C
observed result: 93.1
--
molecule: C#Cc1c(F)ccc2cc(O)cc(-c3ncc4c(N5CC6CCC(C5)N6)nc(OCC56CCCN5CC(F)C6)nc4c3F)c12 (centres undefined) + CCN1C(C(=O)NC23CCC(C(=O)O)(CC2)CC3)C(c2cccc(Cl)c2F)C2(C(=O)Nc3cc(Cl)ccc32)C12CCCCC2
readout kind: viability, T/C
observed result: 111

--- query ---
Need viability, T/C, item C=C(F)C(=O)N1CCN(c2nc(OCC3CCCN3C)nc3c2CCN(c2cccc4cccc(Cl)c24)C3)CC1CC#N (centres undefined) + CCN1C(C(=O)NC23CCC(C(=O)O)(CC2)CC3)C(c2cccc(Cl)c2F)C2(C(=O)Nc3cc(Cl)ccc32)C12CCCCC2
87

---

Documented viability, T/C across a set of molecules
# System: 772245-204-R-J1-PDC complex spheroid growth
# method summary: Anticancer human tumor 772245-204-R-J1-PDC cell line growth inhibition [Asc];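 further: compound exposure lasted seven days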;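 on viability, T/C: 100% = DMSO vehicle control viability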
# experimental context: second compound 0.316 µM; first compound 0.949 µM; stronger effect = lower value
Your answer is read as %, so omit the unit and give the number.

molecule: Cc1nc(N2CCC3(CC2)COC(C)C3N)c(CO)nc1Sc1ccnc(N)c1Cl (centres undefined) + Cc1c(S(C)(=O)=O)c(-c2cc(F)cc(N3CCN(c4ccc(NS(=O)(=O)c5ccc(NC(CCN6CCC(C(=O)OCCCP(=O)(O)O)CC6)CSc6ccccc6)c(S(=O)(=O)C(F)(F)F)c5)cc4)CC3)c2)c(-c2ccc(Cl)cc2)n1C(C)C
readout kind: viability, T/C
measure unit: %
observed result: 46.8
--
molecule: CCN1C(C(=O)NC23CCC(C(=O)O)(CC2)CC3)C(c2cccc(Cl)c2F)C2(C(=O)Nc3cc(Cl)ccc32)C12CCCCC2 (centres undefined) + Cc1c(S(C)(=O)=O)c(-c2cc(F)cc(N3CCN(c4ccc(NS(=O)(=O)c5ccc(NC(CCN6CCC(C(=O)OCCCP(=O)(O)O)CC6)CSc6ccccc6)c(S(=O)(=O)C(F)(F)F)c5)cc4)CC3)c2)c(-c2ccc(Cl)cc2)n1C(C)C
readout kind: viability, T/C
measure unit: %
observed result: 36.6
--
molecule: CCN1C(C(=O)NC23CCC(C(=O)O)(CC2)CC3)C(c2cccc(Cl)c2F)C2(C(=O)Nc3cc(Cl)ccc32)C12CCCCC2 (centres undefined) + CNC(C)C(=O)NC1CN(S(=O)(=O)c2cccc(S(=O)(=O)N3CCC4CCC(C(=O)NC(c5ccccc5)c5ccccc5)N4C(=O)C(NC(=O)C(C)NC)C3)c2)CCC2CCC(C(=O)NC(c3ccccc3)c3ccccc3)N2C1=O
readout kind: viability, T/C
measure unit: %
observed result: 86.8

Moving on to another molecule below.
Quick one: viability, T/C for Cc1nc(N2CCC3(CC2)COC(C)C3N)c(CO)nc1Sc1ccnc(N)c1Cl (centres undefined) + CNC(C)C(=O)NC1CN(S(=O)(=O)c2cccc(S(=O)(=O)N3CCC4CCC(C(=O)NC(c5ccccc5)c5ccccc5)N4C(=O)C(NC(=O)C(C)NC)C3)c2)CCC2CCC(C(=O)NC(c3ccccc3)c3ccccc3)N2C1=O ?
86.8
